# target-desc: Mitogen-activated protein kinase 1 (Homo sapiens)
# Sequence (P28482 whole entry): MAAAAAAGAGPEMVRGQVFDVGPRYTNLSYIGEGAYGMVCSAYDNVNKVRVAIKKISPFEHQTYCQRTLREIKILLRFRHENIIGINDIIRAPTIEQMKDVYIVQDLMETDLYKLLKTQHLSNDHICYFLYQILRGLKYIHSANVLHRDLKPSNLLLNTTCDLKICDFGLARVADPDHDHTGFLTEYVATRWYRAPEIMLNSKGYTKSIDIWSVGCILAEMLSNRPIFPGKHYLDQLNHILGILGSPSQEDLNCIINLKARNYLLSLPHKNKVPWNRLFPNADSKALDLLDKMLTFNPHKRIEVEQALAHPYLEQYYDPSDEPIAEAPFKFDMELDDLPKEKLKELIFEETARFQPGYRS
# measurement-description: Inhibition of ERK2
assay-metric: IC50 (µM)

compound	IC50 / µM
CC[C@H](Nc1nc(NCc2ccccc2)c2ncn(C(C)C)c2n1)C(C)O (mixture of isomers)	29
CC[C@H](Nc1nc(NCc2ccccc2)c2ncn(C(C)C)c2n1)C(O)C(C)C (mixture of isomers)	88
CC[C@H](Nc1nc(NCc2ccccn2)c2ncn(C(C)C)c2n1)C(C)O (mixture of isomers)	77
CC[C@@H](Nc1nc(NCc2ccccn2)c2ncn(C(C)C)c2n1)C(C)O (mixture of isomers)	73
CC[C@H](Nc1nc(NCc2cccnc2)c2ncn(C(C)C)c2n1)C(C)O (mixture of isomers)	20

1. CC[C@@H](Nc1nc(NCc2cccnc2)c2ncn(C(C)C)c2n1)C(C)O (mixture of isomers)
2. CC[C@@H](Nc1nc(NCc2ccccc2)c2ncn(C(C)C)c2n1)C(C)O (mixture of isomers)
query: Select one: 1 or 2 . Criterion: greater recorded IC50. Lab log: write the label of the selected item as the result.
result: 2
(2: 43 µM, 1: 23 µM)

Reference source for all entries: ChEMBL document CHEMBL1921760
